# system-name: Neuraminidase (Influenza A virus)
# Sequence (B4URF0 whole entry): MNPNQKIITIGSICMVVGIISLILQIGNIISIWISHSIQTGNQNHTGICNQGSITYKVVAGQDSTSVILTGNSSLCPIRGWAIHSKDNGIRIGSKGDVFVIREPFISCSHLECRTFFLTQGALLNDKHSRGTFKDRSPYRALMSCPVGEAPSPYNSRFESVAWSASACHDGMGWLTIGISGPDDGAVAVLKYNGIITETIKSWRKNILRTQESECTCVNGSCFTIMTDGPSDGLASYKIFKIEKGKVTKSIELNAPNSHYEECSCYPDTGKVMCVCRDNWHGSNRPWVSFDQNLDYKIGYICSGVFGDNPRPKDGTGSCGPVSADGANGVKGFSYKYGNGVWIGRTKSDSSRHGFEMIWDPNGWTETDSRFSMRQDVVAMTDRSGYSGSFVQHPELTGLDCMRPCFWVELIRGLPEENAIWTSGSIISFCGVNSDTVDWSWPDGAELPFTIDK
measured-metric: pIC50
Scale: pIC50 equals -log10([C]), with [C] in mol/L.

[ask] // lookup pIC50 | system=Neuraminidase (Influenza A virus) | key= "CC(=O)N[C@H]1[C@H]([C@H](O)[C@H](O)CO)O[C@@](SCCCCCSCCCOCCC[Si](CCCOCCCSCCCCCS[C@]2(C(=O)O)C[C@H](O)[C@@H](NC(C)=O)[C@H]([C@H](O)[C@H](O)CO)O2)(CCCOCCCSCCCCCS[C@]2(C(=O)O)C[C@H](O)[C@@H](NC(C)=O)[C@H]([C@H](O)[C@H](O)CO)O2)CCCOCCCSCCCCCS[C@]2(C(=O)O)C[C@H](O)[C@@H](NC(C)=O)[C@H]([C@H](O)[C@H](O)CO)O2)(C(=O)O)C[C@@H]1O"
[reply] 2.30
